- Tested on: DeltatarO mutant
- Measurement Notes: S. aureus survival, RN4220 and DeltatarO strains – OD600, teichoic acid synthesis inhibitors, primary screen (AID 463173)
- Setup Conditions: S. aureus RN4220 wild type/DeltatarO growth, OD600, 18 h, stronger effect = lower value, screened at 18.75 µg/mL (by protocol)
About 4,300 (8.3%) of roughly 52,000 compounds were called active. For the sample, actives were picked, then their nearest neighbours and some compounds at random.
Observable: survival (%)

>>> numeric_readout("COc1ccc(-n2c3c(cc(-c4nc(-c5ccc(Cl)cc5)cs4)c2=O)C(=O)CC(C)(C)C3)cc1Cl")
79
>>> numeric_readout("COc1cc(NC(=O)N2CCN(c3cc(-c4noc(C)n4)ccc3C)CC2)cc(OC)c1OC")
55
>>> numeric_readout("Cc1cc(C)cc(NC(=O)N2CCN(c3cc(-c4noc(C)n4)ccc3C)CC2)c1")
87
>>> numeric_readout("Cc1ccc(NC(=O)N2CCN(c3cc(-c4noc(C)n4)ccc3C)CC2)c(C)c1")
88
>>> numeric_readout("CC(C)CCNC(=O)Cn1c(-c2cccs2)cc2cc(F)ccc21")
94
